molecular target: Ataxin-2 (Homo sapiens) (UniProt Q99700); assay: qHTS for Inhibitors of ATXN expression.; type: functional
Sequence (Q99700 whole entry): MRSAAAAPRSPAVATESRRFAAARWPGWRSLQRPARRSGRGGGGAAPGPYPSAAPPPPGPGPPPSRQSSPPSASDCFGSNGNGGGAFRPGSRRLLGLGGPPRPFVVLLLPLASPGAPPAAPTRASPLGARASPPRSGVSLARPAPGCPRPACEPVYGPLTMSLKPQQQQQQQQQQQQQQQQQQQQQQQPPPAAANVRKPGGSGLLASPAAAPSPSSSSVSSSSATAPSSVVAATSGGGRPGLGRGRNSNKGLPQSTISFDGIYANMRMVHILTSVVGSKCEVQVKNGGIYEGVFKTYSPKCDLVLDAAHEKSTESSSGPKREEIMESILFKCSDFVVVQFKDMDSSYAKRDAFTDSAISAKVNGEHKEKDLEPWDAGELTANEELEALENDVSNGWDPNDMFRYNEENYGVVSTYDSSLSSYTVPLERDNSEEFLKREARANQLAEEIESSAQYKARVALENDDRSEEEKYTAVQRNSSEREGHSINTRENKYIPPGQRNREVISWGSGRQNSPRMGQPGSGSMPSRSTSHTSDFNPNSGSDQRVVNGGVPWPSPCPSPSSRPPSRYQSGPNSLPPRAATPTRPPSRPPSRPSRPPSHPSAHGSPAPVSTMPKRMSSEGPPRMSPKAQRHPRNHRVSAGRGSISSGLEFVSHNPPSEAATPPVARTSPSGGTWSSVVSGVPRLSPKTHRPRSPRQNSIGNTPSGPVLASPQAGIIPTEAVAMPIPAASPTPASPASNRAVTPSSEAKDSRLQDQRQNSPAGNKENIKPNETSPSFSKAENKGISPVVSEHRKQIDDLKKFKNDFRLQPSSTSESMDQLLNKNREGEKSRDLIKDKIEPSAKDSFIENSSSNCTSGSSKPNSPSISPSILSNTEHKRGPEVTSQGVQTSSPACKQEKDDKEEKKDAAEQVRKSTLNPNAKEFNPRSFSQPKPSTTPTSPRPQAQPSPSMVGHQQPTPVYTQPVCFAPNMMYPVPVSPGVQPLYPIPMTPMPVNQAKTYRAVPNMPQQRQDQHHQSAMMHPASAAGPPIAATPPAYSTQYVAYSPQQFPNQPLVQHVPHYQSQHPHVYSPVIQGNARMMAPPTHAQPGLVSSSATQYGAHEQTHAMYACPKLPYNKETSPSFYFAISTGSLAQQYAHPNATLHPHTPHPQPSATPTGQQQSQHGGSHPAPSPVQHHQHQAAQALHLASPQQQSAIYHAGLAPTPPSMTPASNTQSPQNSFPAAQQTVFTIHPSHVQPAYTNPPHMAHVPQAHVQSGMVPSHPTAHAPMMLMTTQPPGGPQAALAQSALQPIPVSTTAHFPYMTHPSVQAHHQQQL
About 2,100 (0.53%) of roughly 400,000 compounds were called active. About 14% were inconclusive and are not listed. No rule for the calls is given here. This excerpt belongs to a sample that is enriched for actives.
Classes used: active, inactive

compound="COc1ccccc1C(CNC(=O)C1COc2ccccc2O1)N1CCCC1 (stereo not drawn)" measured_target="Ataxin-2 (Homo sapiens) (UniProt Q99700)" assigned_label=inactive
compound=CN1CCN(CC/C=C2/c3ccccc3Sc3ccc(S(=O)(=O)N(C)C)cc32)CC1 measured_target="Ataxin-2 (Homo sapiens) (UniProt Q99700)" assigned_label=active
compound=Cc1ccc(-c2noc(CN(C(=O)c3ccc4c(c3)OCO4)C(C)C)n2)cc1 measured_target="Ataxin-2 (Homo sapiens) (UniProt Q99700)" assigned_label=inactive
compound="CCOc1ccc(NS(=O)(=O)c2ccc(C(=O)NCC3CCCO3)cc2)cc1 (stereo not drawn)" measured_target="Ataxin-2 (Homo sapiens) (UniProt Q99700)" assigned_label=inactive
compound=C/C(=C\c1ccccc1)C(=O)c1c(C)cc(C)nc1O measured_target="Ataxin-2 (Homo sapiens) (UniProt Q99700)" assigned_label=inactive
compound=O=C(N/N=C\c1cc(Br)ccc1O)c1ccc(S(=O)(=O)N2CCCCC2)cc1 measured_target="Ataxin-2 (Homo sapiens) (UniProt Q99700)" assigned_label=inactive
compound=CSc1ccc(/C=C2\CCn3c2nc2cc(C(=O)O)ccc2c3=O)cc1 measured_target="Ataxin-2 (Homo sapiens) (UniProt Q99700)" assigned_label=inactive
compound=COc1cccc(C(=O)COC(=O)CCC(=O)c2ccccc2)c1 measured_target="Ataxin-2 (Homo sapiens) (UniProt Q99700)" assigned_label=inactive
compound=COc1cccc(C=C(C(C)=O)C(=O)c2ccccc2)c1 measured_target="Ataxin-2 (Homo sapiens) (UniProt Q99700)" assigned_label=active
compound=O=C(CCl)N1c2ccccc2Sc2c1ccc1ccccc21 measured_target="Ataxin-2 (Homo sapiens) (UniProt Q99700)" assigned_label=active
compound=N=C(Cc1ccc(Cl)cc1)NOC(=O)c1cccc2ccccc12 measured_target="Ataxin-2 (Homo sapiens) (UniProt Q99700)" assigned_label=active
compound=Cc1ccc(F)cc1NC(=O)N1CCCN(c2ccc(C(F)(F)F)cn2)CC1 measured_target="Ataxin-2 (Homo sapiens) (UniProt Q99700)" assigned_label=inactive
compound=N#C/C(=C\c1ccncc1)c1nc2c(s1)CCCC2 measured_target="Ataxin-2 (Homo sapiens) (UniProt Q99700)" assigned_label=inactive
compound=O=C(/C=C/Sc1ccccc1)c1ccc(Cl)cc1 measured_target="Ataxin-2 (Homo sapiens) (UniProt Q99700)" assigned_label=active
compound=COC(=O)c1ccc(CSc2cc(C)c3cccc(C)c3n2)o1 measured_target="Ataxin-2 (Homo sapiens) (UniProt Q99700)" assigned_label=inactive
compound=O=C(N/N=C/C(Br)=C/c1ccccc1)c1ccncc1 measured_target="Ataxin-2 (Homo sapiens) (UniProt Q99700)" assigned_label=active
compound="CCOC(=O)c1cc2c(=O)n3ccccc3nc2n(CC2CCCO2)/c1=N\\C(=O)c1ccc(C(C)(C)C)cc1 (stereo not drawn)" measured_target="Ataxin-2 (Homo sapiens) (UniProt Q99700)" assigned_label=inactive
compound=Fc1ccc(-c2nnc3ccc(N4CCc5ccccc5C4)nn23)cc1 measured_target="Ataxin-2 (Homo sapiens) (UniProt Q99700)" assigned_label=active
compound=O=C(N/N=C/c1cn(CCOc2ccccc2)c2ccccc12)c1ccncc1 measured_target="Ataxin-2 (Homo sapiens) (UniProt Q99700)" assigned_label=inactive
compound=Cc1cccn2c(=O)c3cc(C(=O)NCc4ccccc4)c(=N)n(CCCN4CCOCC4)c3nc12 measured_target="Ataxin-2 (Homo sapiens) (UniProt Q99700)" assigned_label=inactive
compound=CCSc1nnc(NC(=O)CSc2nc3c(cc2C#N)CCCC3)s1 measured_target="Ataxin-2 (Homo sapiens) (UniProt Q99700)" assigned_label=inactive
compound="O=C(Cc1ccc(NC2=NC3CS(=O)(=O)CC3S2)cc1)N1CCN(c2ccc(F)cc2)CC1 (stereo not drawn)" measured_target="Ataxin-2 (Homo sapiens) (UniProt Q99700)" assigned_label=inactive
compound=CC(C)c1cc(C(=O)N/N=C/C(Br)=C/c2ccccc2)[nH]n1 measured_target="Ataxin-2 (Homo sapiens) (UniProt Q99700)" assigned_label=active
compound=CSc1nc(-c2ccc(N(C)C)cc2)c(C#N)c(=O)n1C measured_target="Ataxin-2 (Homo sapiens) (UniProt Q99700)" assigned_label=inactive
compound=Cn1cc(C(=O)N/N=C/C(Br)=C/c2ccccc2)ccc1=O measured_target="Ataxin-2 (Homo sapiens) (UniProt Q99700)" assigned_label=active
compound=COC(=O)c1ccc(/C=N/Nc2nc(C)c(C)s2)cc1 measured_target="Ataxin-2 (Homo sapiens) (UniProt Q99700)" assigned_label=inactive
compound="CCOc1ccc(C(=O)NCC(c2ccc(Cl)cc2)N2CCCCC2)cc1 (stereo not drawn)" measured_target="Ataxin-2 (Homo sapiens) (UniProt Q99700)" assigned_label=active
compound=CCN(CC)c1ccc(/C=C2\CCC(/C=N/NC(=O)c3ccc(=O)n(C)c3)=C2N2CCOCC2)cc1 measured_target="Ataxin-2 (Homo sapiens) (UniProt Q99700)" assigned_label=inactive
compound=Cc1ccc(C)c(-n2c(=O)c(C#N)cc3c(=O)n4ccccc4nc32)c1 measured_target="Ataxin-2 (Homo sapiens) (UniProt Q99700)" assigned_label=inactive
compound=CCOC(=O)CNS(=O)(=O)c1ccc2c3c(cccc13)C(=O)N2CC measured_target="Ataxin-2 (Homo sapiens) (UniProt Q99700)" assigned_label=inactive
compound=O=C(/C=C/Sc1ccccc1)c1ccccc1 measured_target="Ataxin-2 (Homo sapiens) (UniProt Q99700)" assigned_label=active
compound=CCC(=O)NCCCNc1nc2c(C)cccc2cc1C#N measured_target="Ataxin-2 (Homo sapiens) (UniProt Q99700)" assigned_label=inactive
compound=O=C(CSc1nnc(NC(=O)c2ccccc2[N+](=O)[O-])s1)NC1CCCC1 measured_target="Ataxin-2 (Homo sapiens) (UniProt Q99700)" assigned_label=inactive
compound=C/C(=N\NC(=O)c1ccc(CN2CCOCC2)cc1)c1ccc([N+](=O)[O-])cc1 measured_target="Ataxin-2 (Homo sapiens) (UniProt Q99700)" assigned_label=inactive
compound=Cc1cc(C(=O)N/N=C/c2cc(Br)cc(Br)c2OC(=O)c2cccc(F)c2)[nH]n1 measured_target="Ataxin-2 (Homo sapiens) (UniProt Q99700)" assigned_label=inactive
compound=C/C(=N\Nc1nc(C)c(C)s1)c1ccc([N+](=O)[O-])cc1 measured_target="Ataxin-2 (Homo sapiens) (UniProt Q99700)" assigned_label=active
compound=O=C(CNC(=O)c1ccc(Cl)cc1)Nc1ccccc1C(F)(F)F measured_target="Ataxin-2 (Homo sapiens) (UniProt Q99700)" assigned_label=inactive
compound="CCOc1ccc(S(=O)(=O)NCC(c2ccc3c(c2)OCO3)N2CCN(C)CC2)cc1 (stereo not drawn)" measured_target="Ataxin-2 (Homo sapiens) (UniProt Q99700)" assigned_label=inactive
